- EXPERIMENTAL SYSTEM: T1, dT14-3-3_PKA/CHK1, unphosphorylated (Tobacco | )
- T1 chain: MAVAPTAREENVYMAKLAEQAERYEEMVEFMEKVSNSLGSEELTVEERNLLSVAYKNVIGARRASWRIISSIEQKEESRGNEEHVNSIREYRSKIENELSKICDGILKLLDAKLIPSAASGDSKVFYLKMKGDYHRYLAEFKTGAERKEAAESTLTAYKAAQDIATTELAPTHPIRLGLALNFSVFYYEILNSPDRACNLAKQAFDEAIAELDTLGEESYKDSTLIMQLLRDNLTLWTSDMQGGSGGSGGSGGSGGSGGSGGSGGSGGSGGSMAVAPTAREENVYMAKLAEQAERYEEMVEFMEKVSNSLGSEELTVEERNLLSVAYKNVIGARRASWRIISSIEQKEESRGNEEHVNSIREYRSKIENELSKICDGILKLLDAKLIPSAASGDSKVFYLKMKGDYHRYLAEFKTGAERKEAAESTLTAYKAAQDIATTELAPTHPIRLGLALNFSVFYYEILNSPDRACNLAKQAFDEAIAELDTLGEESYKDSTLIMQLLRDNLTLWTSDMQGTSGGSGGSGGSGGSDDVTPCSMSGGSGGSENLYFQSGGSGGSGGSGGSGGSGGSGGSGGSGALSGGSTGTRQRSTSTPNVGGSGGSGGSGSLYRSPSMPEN
- ASSAY TEXT: FP
PARAMETER MEASURED: Kd

QGLLDALDLAS [mExoS peptide (C-terminal region of exoenzyme S)]    6.64 µM
